Measured values drawn from PubChem BioAssay (NCI) for this set.

Could you please report measured growth for the items listed next?
# System: SK-MEL-28 melanoma
# assay explanation: NCI-60 one-dose screen, 48 h (100 = growth as untreated, 0 = no growth, -100 = all killed)
# study conditions: 10 µM unless noted
About 83,000 compounds went through this panel and 20% of them were active in at least one assay; those are over-represented in the sample as a whole.
Field format: number, assumed %, no unit text.

Given the molecule "Cc1ccccc1C(c1ccccc1)c1ccccc1C" , write its reported growth.
103

Given the molecule "COc1ccc(NS(=O)(=O)c2ccc(C)cc2)c([N+](=O)[O-])c1" , write its reported growth.
107

Given the molecule "COc1nccnn1" , write its reported growth.
102

Given the molecule "O=S(=O)(NCCNc1nccc(-c2c(-c3cccc(F)c3)nc3occn23)n1)c1cccc2ccccc12" , write its reported growth.
73

Given the molecule "COc1cc(NCCCN(CC(C)C)C2CCCC2)c2ncccc2c1" , write its reported growth.
71.2

Given the molecule COc1cc(C2CC(c3cccc(Nc4ccncc4)c3)=NN2c2cc(Cl)cc(Cl)c2)cc(OC)c1OC (stereo not given) , write its reported growth.
-78.5

Given the molecule "O=C(Nc1ccc(F)cc1)c1c(NC(=O)C(F)(F)F)sc2c1CCCCC2" , write its reported growth.
12.2

Given the molecule "COc1cc(C(=O)/C=C/c2c(C)n([O-])c3ccc(Cl)cc3[n+]2=O)cc(OC)c1OC" , write its reported growth.
80.8

Given the molecule "Cc1ccc(-c2c(Br)c(OC(=O)CO[C@@H]3C[C@H](C)CC[C@H]3C(C)C)c(-c3ccc(C)cc3C)c(Br)c2OC(=O)CO[C@H]2C[C@@H](C)CC[C@@H]2C(C)C)c(C)c1" , write its reported growth.
108

Given the molecule "Cc1[nH]n(-c2cccc(Cl)c2)c(=O)c1/C=C1\C=Nc2ccc(Br)cc21" , write its reported growth.
71.2
